TARGET ENTITY: MCR-4 (Homo sapiens, UniProt P32245)
Construct: expressed in transfected cells; host or cells: HEK 293
Sequence (P32245 whole entry): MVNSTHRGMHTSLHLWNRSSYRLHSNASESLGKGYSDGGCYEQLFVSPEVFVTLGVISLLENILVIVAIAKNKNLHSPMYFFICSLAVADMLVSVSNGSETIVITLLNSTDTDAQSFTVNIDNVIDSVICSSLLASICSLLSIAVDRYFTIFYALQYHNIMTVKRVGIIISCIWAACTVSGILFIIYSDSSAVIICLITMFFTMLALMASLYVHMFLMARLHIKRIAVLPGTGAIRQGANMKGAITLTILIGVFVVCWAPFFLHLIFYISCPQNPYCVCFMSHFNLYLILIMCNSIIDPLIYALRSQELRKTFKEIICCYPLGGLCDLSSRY
TEST PROTOCOL: cAMP assay for melanocortin receptors, HEK 293 cells expressing MCR-4
Assay type: cell-based
TEST SETTINGS: maximum amount of cAMP
List of MC-4 Max (pmole) cAMP produced values.
Reply with just the number (in pmol).

Look over these answered cases.
1. CNC(CN)CCCCN1Cc2ccccc2C(CNC2CCCCC2)C1c1ccc(Oc2ccccc2)cc1 (stereo not shown) [TRG 2405-252] ... 39.24
2. CCCOc1ccc(C2C(CNC3CCCCC3)c3ccccc3CN2CCCCC(CN)NC)cc1 (stereo not shown) [TRG 2405-253] ... 69.11
3. CNC(CN)CCCCN1Cc2ccccc2C(CNC2CCCCC2)C1c1ccc(Cl)cc1Cl (stereo not shown) [TRG 2405-190] ... 100.48

The record that follows has no MC-4 Max (pmole) cAMP produced shown yet.
Asked: Given CNC(CN)CCCCN1Cc2ccccc2C(CNC2CCCCC2)C1c1ccc(-c2ccccc2)cc1 (stereo not shown) [TRG 2405-241] , state its recorded MC-4 Max (pmole) cAMP produced.
Given back: 32.32

Cited source: patent US6608082B1
